Molecular target: recombinant N-terminal GST-tagged human Rho kinase 2 (ROCK2, amino acids 1-552) (Homo sapiens, UniProt O75116)
Construct: ROCK2, amino acids 1-552; purchased Invitrogen Inc. PV3759
Sequence (O75116 1-552): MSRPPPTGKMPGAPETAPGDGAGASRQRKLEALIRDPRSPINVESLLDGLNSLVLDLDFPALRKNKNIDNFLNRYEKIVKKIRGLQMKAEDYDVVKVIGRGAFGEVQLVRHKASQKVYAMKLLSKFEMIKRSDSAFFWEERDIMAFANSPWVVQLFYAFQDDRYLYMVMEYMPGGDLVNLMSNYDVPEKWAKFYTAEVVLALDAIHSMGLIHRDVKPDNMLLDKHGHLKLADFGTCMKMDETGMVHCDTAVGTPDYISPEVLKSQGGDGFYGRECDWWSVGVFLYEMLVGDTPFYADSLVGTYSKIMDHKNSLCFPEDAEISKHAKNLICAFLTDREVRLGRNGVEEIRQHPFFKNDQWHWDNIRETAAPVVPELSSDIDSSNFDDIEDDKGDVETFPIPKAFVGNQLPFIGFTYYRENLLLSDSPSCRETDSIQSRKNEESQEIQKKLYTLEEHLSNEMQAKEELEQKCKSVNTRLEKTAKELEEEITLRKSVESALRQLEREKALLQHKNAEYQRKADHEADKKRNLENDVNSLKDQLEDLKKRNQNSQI
Experiment: In vitro Rho kinase assay (luciferase-based ATP consumption), ROCK2
Type: biochemical
Conditions: recombinant GST-tagged human ROCK2, luciferase-based ATP consumption; read-out: ROCK2 IC50
pIC50: −log10 of the molar value.
Quantity Kind: pIC50

// worked examples, pIC50 included
Cc1c(-c2ccnc(N)n2)sc2ccc(C(=O)N(C)C(Cc3ccccc3)c3ccccc3)cc12 (centres unmarked) | < 5.30
Cc1c(-c2ccncc2)sc2ccc(Cl)cc12 | < 5.30

Could you now consider this next molecule?
The recorded pIC50 for entry Cc1c(-c2ccnc(N)n2)sc2ccc(C(=O)NN3CCOCC3)cc12 equals > 5.30
